From: the supplement of paper PMC10307832

system: NCI-H2405; test: relative viability (nuclei count vs DMSO), 5 days (fraction); higher = more cells survive; details: first compound 0.01 µM
Strictly below 0.9 in relative viability: criterion met. Otherwise: criterion not met.

| compound | class name |
| --- | --- |
| Cc1cn(-c2cc(NC(=O)c3ccc(C)c(Nc4nccc(-c5cccnc5)n4)c3)cc(C(F)(F)F)c2)cn1 [Nilotinib] + C[C@]1(O)C[C@@H](c2nc(-c3ccc4ccc(-c5ccccc5)nc4c3)c3c(N)nccn32)C1 [Linsitinib] (partner 1 µM) | criterion met |
| Cc1cn(-c2cc(NC(=O)c3ccc(C)c(Nc4nccc(-c5cccnc5)n4)c3)cc(C(F)(F)F)c2)cn1 [Nilotinib] + Cc1nc(Nc2ncc(C(=O)Nc3c(C)cccc3Cl)s2)cc(N2CCN(CCO)CC2)n1 [Dasatinib] (partner 0.075 µM) | criterion met |

Ask: API: query returns whether the compound falls strictly under 0.9 in relative viability. Query: Cc1cn(-c2cc(NC(=O)c3ccc(C)c(Nc4nccc(-c5cccnc5)n4)c3)cc(C(F)(F)F)c2)cn1 [Nilotinib] + COc1cccc2cc(-c3nc([C@H]4CC[C@H](C(=O)O)CC4)n4ncnc(N)c34)[nH]c12 [OSI-027] (partner 0.5 µM)
Result: criterion met

Ask: API: query returns whether the compound falls strictly under 0.9 in relative viability. Query: Cc1cn(-c2cc(NC(=O)c3ccc(C)c(Nc4nccc(-c5cccnc5)n4)c3)cc(C(F)(F)F)c2)cn1 [Nilotinib] + CC(C)C[C@H](NC(=O)[C@H](Cc1ccccc1)NC(=O)c1cnccn1)B(O)O [Bortezomib] (partner 0.002 µM)
Result: criterion not met
